TARGET_ENTITY: Cdk2(N272C) (C177A) (Homo sapiens, UniProt P24941, C177A/N272C)
Construct: poly-histidine; made in house; host or cells: E. coli
ASSAY_PROCEDURE: Kinetic thiol consumption assay with Cdk2 mutant N272C
Format: binding
Set-up: key: rate constant with Cdk2 ÷ rate constant with model thiol (fold)
MEASUREMENT_CONTEXT: Cdk2 N272, additional mutation C177A
Description: To wells containing 150 μL thiol (Cdk2 or model thiol) (5 μM) in degassed phosphate buffer (pH 8) was added immobilized TCEP beads (2% v/v). After incubation of the fluorescence plates for 1 hour at room temperature, fluorescence measurements (excitation/emission of 380/470 nm) were taken on a PerkinElmer EnVision multilabel plate reader and processed with EnVision Workstation version 1.12. Fluorescence measurements were normalized against a DMSO/thiol only control and plotted against time. […]
Would you please tag the item T when its Rate enhancement, Cdk2 N272 is 0.3 or above, and F when it is below?

Consider the worked cases shown below.
CHEMICAL_STRUCTURE: C=CC(=O)N(c1ccc2c(c1)OCCO2)C1CC1
CLASS: F
--
CHEMICAL_STRUCTURE: C=CC(=O)N1CC(OCc2cccc3ccccc23)C1
CLASS: T
--
CHEMICAL_STRUCTURE: C=CC(=O)Nc1ccccc1C#N
CLASS: F
--
CHEMICAL_STRUCTURE: C=CC(=O)NCCNC(=O)c1ccccc1
CLASS: T
--
CHEMICAL_STRUCTURE: C=CC(=O)NCCc1c(-c2ccccn2)[nH]c2ccc(F)cc12
CLASS: T

Prompt line: Does the reported Rate enhancement, Cdk2 N272 for `C=CC(=O)Nc1ccccc1N1CCOCC1` fall at or above the 0.3 mark?
Response line: F
